These entries and their values trace back to patent US11254686B1.

Readings of LM CLint for the listed compounds
assay: Liver microsome (LM) intrinsic clearance, human; type: in vitro ADME
Measurement Kind: LM CLint

C[C@H](Nc1nc(C(=O)N2CC[C@@H](F)C2)c2sccc2n1)c1cccnc1 [Example Z8] ... 17.06 μL/min/mg/protein
O=C(c1nc(NCc2cncc(F)c2)nc2ccsc12)N1CCC1 [Example Z61] ... 33.16 μL/min/mg/protein
C[C@H](Nc1nc(C(=O)N2CC[C@H](F)C2)c2sccc2n1)c1ccccn1 [Example Z53] ... 13.51 μL/min/mg/protein
C[C@H](Nc1nc(C(=O)N2CC[C@H](O)C2)c2sccc2n1)c1ccccn1 [Example Z58] ... 5.60 μL/min/mg/protein
C[C@H](Nc1nc(C(=O)N2CC[C@H](O)C2)c2sccc2n1)c1cccnc1 [Example Z28] ... 4.55 μL/min/mg/protein
CO[C@@H]1CCN(C(=O)c2nc(N[C@@H](C)c3cccnc3)nc3ccsc23)C1 [Example Z19] ... 17.60 μL/min/mg/protein
C[C@H](Nc1nc(C(=O)N2CC[C@@H](F)C2)c2sccc2n1)c1ccccn1 [Example Z52] ... 11.20 μL/min/mg/protein
O=C(c1nc(NCc2cncc(F)c2)nc2ccsc12)N1CC[C@@H](O)C1 [Example Z66] ... 16.45 μL/min/mg/protein
C[C@@H]1CCN(C(=O)c2nc(N[C@@H](C)c3cccnc3)nc3ccsc23)C1 [Example Z34] ... 53.26 μL/min/mg/protein
C[C@H](Nc1nc(C(=O)N2CC(F)(F)C2)c2sccc2n1)c1cccnc1 [Example Z32] ... 51.28 μL/min/mg/protein
C[C@H]1CCN(C(=O)c2nc(N[C@@H](C)c3cccnc3)nc3ccsc23)C1 [Example Z63] ... 47.64 μL/min/mg/protein
Cc1cncc(CNc2nc(C(=O)N3CCCC3)c3sccc3n2)c1 [Example Z50] ... 126.01 μL/min/mg/protein
O=C(c1nc(NCc2cncc(F)c2)nc2ccsc12)N1CC[C@H](O)C1 [Example Z62] ... 10.76 μL/min/mg/protein
Cc1cncc(CNc2nc(C(=O)N3CCC3)c3sccc3n2)c1 [Example Z55] ... 63.74 μL/min/mg/protein
O=C(c1nc(NCc2cncc(F)c2)nc2ccsc12)N1CCCC1 [Example Z21] ... 43.24 μL/min/mg/protein
CO[C@H]1CCN(C(=O)c2nc(N[C@@H](C)c3cccnc3)nc3ccsc23)C1 [Example Z18] ... 14.28 μL/min/mg/protein
COc1ccc(CNC(=O)c2nc(N[C@@H](C)c3ccccn3)nc3ccsc23)cn1 [Example Z16] ... 17.68 μL/min/mg/protein
O=C(c1nc(NCc2cncc(F)c2)nc2ccsc12)N1CC[C@@H](F)C1 [Example Z60] ... 34.26 μL/min/mg/protein
C[C@H](Nc1nc(C(=O)N2CC[C@@H](O)C2)c2sccc2n1)c1ccccn1 [Example Z59] ... 4.87 μL/min/mg/protein
